Below are MIC values recorded for gram positive bacteria.

These recorded examples may help you get a feel for the data.
> print(dat)
                                   compound           tested.target  readout.name     measurement
1  CN1C(=O)C(CCOc2ccc(CCNC(=N)N)cc2)Oc2ccccc21 (centres unmarked)  gram positive bacteria           MIC  16 to 34 µg/mL
2  Cc1ccc2c(c1)OC(CCOc1ccc(CCNC(=N)N)cc1)C(=O)N2Cc1cccc(Cl)c1 (centres unmarked)  gram positive bacteria           MIC         2 µg/mL
3  CCCCCN1C(=O)C(CCOc2ccc(CCNC(=N)N)cc2)Oc2ccccc21 (centres unmarked)  gram positive bacteria           MIC    4 to 8 µg/mL

Lab note: gram positive bacteria assay, enter MIC for N=C(N)NCCc1ccc(OCCC2CN(Cc3cccc(Cl)c3)c3ccccc3O2)cc1 (centres unmarked) here 1 to 2 µg/mL

Lab note: gram positive bacteria assay, enter MIC for N=C(N)NCCc1ccc(OCCC2CN(Cc3ccc(Cl)cc3)c3ccccc3O2)cc1 (centres unmarked) here 2 to 4 µg/mL

====

Test system: gram positive bacteria
EXPERIMENT_NOTES: MIC antimicrobial assay, microdilution broth method (NCCLS), gram positive bacteria
Assay type: cell-based
RECORDED_CONDITIONS: range over the gram positive test organisms; 35° C., 16-20 hours
READOUT_NAME: MIC

> print(dat)
                                   compound    measurement
1  NCc1ccc(OCCC2Oc3ccccc3N(Cc3ccc(Cl)cc3)C2=O)cc1 (centres unmarked)  8 to 16 µg/mL
2  NCCc1ccc(OCCC2Oc3ccccc3N(Cc3ccc(Cl)cc3)C2=O)cc1 (centres unmarked)   1 to 2 µg/mL
3  N=C(N)NCCc1ccc(OCCC2Oc3ccccc3N(Cc3cc(Cl)cc(Cl)c3)C2=O)cc1 (centres unmarked)        2 µg/mL
4  NCc1cccc(OCCC2Oc3ccccc3N(Cc3cccc(Cl)c3)C2=O)c1 (centres unmarked)  8 to 16 µg/mL
5  N=C(N)NCCc1ccc(OCCC2Oc3ccccc3N(Cc3ccc(Cl)cc3)C2=O)cc1 (centres unmarked)   2 to 4 µg/mL

Input NCCc1cccc(OCCC2Oc3ccccc3N(Cc3ccc(Cl)cc3)C2=O)c1 (centres unmarked) , output reported MIC. 8 to 16 µg/mL

Input N=C(N)NCCc1ccc(OCCC2Oc3ccc(N)cc3N(Cc3cccc(Cl)c3)C2=O)cc1 (centres unmarked) , output reported MIC. 2 to 16 µg/mL

Input N=C(N)NCCc1ccc(OCCC2Oc3ccc([N+](=O)[O-])cc3N(Cc3ccccc3Cl)C2=O)cc1 (centres unmarked) , output reported MIC. 1 to 4 µg/mL

Input NCc1ccc(OCCC2Oc3ccccc3N(Cc3cccc(Cl)c3)C2=O)cc1 (centres unmarked) , output reported MIC. 8 to 32 µg/mL

Input N=C(N)NCc1ccc(OCCC2Oc3ccccc3N(Cc3cccc(Cl)c3)C2=O)cc1 (centres unmarked) , output reported MIC. 1 to 4 µg/mL

Input NCCc1cccc(OCCC2Oc3ccccc3N(Cc3ccccc3Cl)C2=O)c1 (centres unmarked) , output reported MIC. 8 to 16 µg/mL

Input N=C(N)NCc1ccc(OCCC2Oc3ccccc3N(Cc3ccccc3Cl)C2=O)cc1 (centres unmarked) , output reported MIC. 1 to 4 µg/mL

Input N=C(N)NCc1ccc(OCCC2CN(Cc3ccccc3Cl)c3ccccc3O2)cc1 (centres unmarked) , output reported MIC. 1 to 2 µg/mL

Input NCc1ccc(OCCC2Oc3ccccc3N(Cc3cc(Cl)cc(Cl)c3)C2=O)cc1 (centres unmarked) , output reported MIC. 4 to 16 µg/mL

Input N=C(N)NCCc1ccc(OCCC2Oc3ccccc3N(Cc3cccc(Cl)c3)C2=O)cc1 (centres unmarked) , output reported MIC. 2 to 4 µg/mL

Input NCCCc1ccc(OCCC2Oc3ccccc3N(Cc3cccc(Cl)c3)C2=O)cc1 (centres unmarked) , output reported MIC. 8 µg/mL

Input NCCc1cccc(OCCC2Oc3ccccc3N(Cc3cccc(Cl)c3)C2=O)c1 (centres unmarked) , output reported MIC. 8 to 16 µg/mL

====

IC50: recorded values
TESTED_TARGET: Kinase A and SpoOF (Bacillus subtilis)
Construct: made in house; host or cells: recombinant E. coli (overexpression)
Sequence (P16497 whole entry): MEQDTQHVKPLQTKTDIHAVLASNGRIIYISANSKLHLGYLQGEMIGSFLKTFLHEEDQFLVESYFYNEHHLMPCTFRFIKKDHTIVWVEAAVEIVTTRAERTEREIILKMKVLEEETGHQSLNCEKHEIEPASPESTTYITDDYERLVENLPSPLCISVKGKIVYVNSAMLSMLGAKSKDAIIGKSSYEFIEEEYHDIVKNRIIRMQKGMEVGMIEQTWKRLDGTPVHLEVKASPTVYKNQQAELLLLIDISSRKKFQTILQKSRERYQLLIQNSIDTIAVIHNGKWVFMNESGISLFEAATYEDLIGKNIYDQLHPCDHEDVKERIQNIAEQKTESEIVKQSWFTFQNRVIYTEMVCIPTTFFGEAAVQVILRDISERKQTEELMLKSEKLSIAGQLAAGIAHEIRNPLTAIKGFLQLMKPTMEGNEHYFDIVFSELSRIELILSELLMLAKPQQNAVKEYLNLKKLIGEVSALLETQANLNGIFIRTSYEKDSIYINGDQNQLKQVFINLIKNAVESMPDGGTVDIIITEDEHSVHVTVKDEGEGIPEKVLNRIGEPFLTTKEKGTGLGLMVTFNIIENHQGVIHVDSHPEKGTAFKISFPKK
EXPERIMENT_NOTES: Autophosphorylation of Kinase A and Transphosphorylation of SpoOF Assay (HPK in vitro assay)
Format: biochemical
RECORDED_CONDITIONS: inhibition of KinA autophosphorylation / SpoOF transphosphorylation, inhibitor concentrations from 1 to 500 μM
Give the value, in units of µM, as a plain number.

These recorded examples may help you get a feel for the data.
COMPOUND	IC50 / µM
O=C1NC(=O)C(c2ccc(OCCC3Oc4ccccc4N(Cc4cccc(Cl)c4)C3=O)cc2)S1 (stereo not shown) [Compound 134]	23
N=C(N)NCCc1ccc(OCCC2Oc3ccc(-c4ccccc4)cc3N(Cc3cccc(Cl)c3)C2=O)cc1 (stereo not shown) [Compound 52]	36

Lab note: Kinase A and SpoOF (Bacillus subtilis) assay, enter IC50 for CCCCCN1C(=O)C(CCOc2ccc(CCNC(=N)N)cc2)Oc2ccccc21 (stereo not shown) [Compound 61] here 41

Lab note: Kinase A and SpoOF (Bacillus subtilis) assay, enter IC50 for CC(C)(C)OC(=O)N=C(NCCc1ccc(OCCC2Oc3cc([N+](=O)[O-])ccc3N(Cc3ccccc3[N+](=O)[O-])C2=O)cc1)NC(=O)OC(C)(C)C (stereo not shown) [Compound 143] here 73

====

MIC: recorded values
Tested on: gram positive bacteria

These recorded examples may help you get a feel for the data.
> print(dat)
                                   molecule           tested.target   measurement
1  N=C(N)NCCc1ccc(OCCC2Oc3ccc(Cl)cc3N(Cc3cccc(Cl)c3)C2=O)cc1 (stereo not drawn)  gram positive bacteria       2 µg/mL
2  NCCc1cccc(OCCC2Oc3ccccc3N(Cc3cc(Cl)cc(Cl)c3)C2=O)c1 (stereo not drawn)  gram positive bacteria  4 to 8 µg/mL

Next item in the queue.
Input NCCc1ccc(OCCC2Oc3ccccc3N(Cc3cccc(Cl)c3)C2=O)cc1 (stereo not drawn) , output reported MIC. 8 to 16 µg/mL
